target_or_system: recombinant, phosphorylated p38 MAPK gamma (MAPK12:Millipore) (Homo sapiens)
Sequence (P53778 whole entry): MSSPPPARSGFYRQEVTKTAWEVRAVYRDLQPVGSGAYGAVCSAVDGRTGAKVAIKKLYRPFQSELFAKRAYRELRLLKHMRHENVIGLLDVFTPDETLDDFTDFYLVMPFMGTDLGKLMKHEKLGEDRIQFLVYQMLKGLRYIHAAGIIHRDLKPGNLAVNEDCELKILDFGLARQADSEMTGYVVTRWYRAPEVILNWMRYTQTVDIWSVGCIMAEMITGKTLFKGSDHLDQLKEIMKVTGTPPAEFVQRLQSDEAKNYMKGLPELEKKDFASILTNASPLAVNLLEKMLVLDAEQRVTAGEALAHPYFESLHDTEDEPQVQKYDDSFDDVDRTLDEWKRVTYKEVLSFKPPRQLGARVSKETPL
protocol_summary: Enzyme inhibition assay (FRET, Z-LYTE), p38 MAPK gamma
setup_conditions: read-out: IC50 values P38γ enzyme
measurement_type: IC50

> print(dat)
                                   molecule  measurement.type     result
1  Cc1ccc(-n2nc(C(C)(C)C)cc2NC(=O)Nc2ccc(OCc3ccnc(NC(=O)[C@@H]4COCCN4)c3)c3ccccc23)cc1 [Example 11]              IC50  < 5000 nM
2  COCCNC(=O)CNC(=O)Nc1cc(COc2ccc(NC(=O)Nc3cc(C(C)(C)C)nn3-c3ccc(C)cc3)c3ccccc23)ccn1 [Example 15]              IC50   < 500 nM
3  Cc1ccc(-n2nc(C(C)(C)C)cc2NC(=O)Nc2ccc(OCc3ccnc(NC(=O)C4CCOCC4)c3)c3ccccc23)cc1 [Example 3]              IC50   < 500 nM
